test system: PfHDP1 homeodomain (GST-tagged); assay: gcPBM binding intensity (ln(normalized median fluorescence intensity)); higher = stronger DNA binding
In all, about 25,000 sequences were measured (“ln(normalized median fluorescence intensity)”: median about 6.7, highest 2% from about 10 on). Shown is part of a subset that was picked to be rich in the highest values.
Mark rule met for reported gcPBM binding intensity (ln) of 7 or greater; mark rule not met for anything smaller.

Ask: Please tell me: is the sequence TTATGTAGTATAATGAGTACTAAATATAGATATGTT [XGTACX_site6335] at or over 7 in terms of gcPBM binding intensity (ln)?
Result: rule not met

Ask: Please tell me: is the sequence GTCAAATTTTTGTGCACACATATATAGTTATTATTA [CACACA_site2241] at or over 7 in terms of gcPBM binding intensity (ln)?
Result: rule met

Ask: Please tell me: is the sequence AAGTTTTCTTAAAATTGTACTTTTCAAAAATAATCT [XGTACX_site277] at or over 7 in terms of gcPBM binding intensity (ln)?
Result: rule not met

Ask: Please tell me: is the sequence AAATATTACATTTGTTAAATAATATGTTATACATAA [XGTACX_negctrl_site484] at or over 7 in terms of gcPBM binding intensity (ln)?
Result: rule not met

Ask: Please tell me: is the sequence AGGTATATATTACAAGTGCACTGTAAAATTAAAATT at or over 7 in terms of gcPBM binding intensity (ln)?
Result: rule met

Ask: Please tell me: is the sequence TGCATAATTAAAAATGGTACACTGTATTTATAATAT [XGTACX_site1575] at or over 7 in terms of gcPBM binding intensity (ln)?
Result: rule not met

Ask: Please tell me: is the sequence AATTTTTTATATGTCACACATTTGTTATTATTATTA [CACACA_site4197] at or over 7 in terms of gcPBM binding intensity (ln)?
Result: rule not met

Ask: Please tell me: is the sequence CTATATATTTTTCATTGTACACAAATTAAAGAAAAA [XGTACX_site8385] at or over 7 in terms of gcPBM binding intensity (ln)?
Result: rule not met

* * *

Give measured gcPBM binding intensity (ln) for each item. Keep answers brief.
test system: PfHDP1 homeodomain (GST-tagged); assay: gcPBM binding intensity (ln(normalized median fluorescence intensity)); higher = stronger DNA binding
Over roughly 25,000 sequences, “ln(normalized median fluorescence intensity)” has its median near 6.7; the highest 2% begin near 10. This is one part of a sample in which the highest values are shown more often than they occur.
Hey, just send me the number, nothing else.

Ask: Using the record for TATATATATATAATAGTGCATAAATAAATATATAAA , state its measured gcPBM binding intensity (ln).
Result: 9

Ask: Using the record for ACATTAACATTGTTGGTGCAAAATTAATATGTTTTT [GTGCAC_site9673] , state its measured gcPBM binding intensity (ln).
Result: 10.7

Ask: Using the record for CCACGTATACGATGCACACGTATGCTTTATATATAG [CACACA_site4108] , state its measured gcPBM binding intensity (ln).
Result: 8.58

Ask: Using the record for AAATATTTTTTAATGTGTACATAGAACATATATATA [XGTACX_site3136] , state its measured gcPBM binding intensity (ln).
Result: 6.59

Ask: Using the record for AAAATTAATGTTGGTTGTACAAAAATTAAATATGGT [XGTACX_site66] , state its measured gcPBM binding intensity (ln).
Result: 6.85

Ask: Using the record for TTATATATATATAATACACACATAATAATATATTTA [CACACA_site3038] , state its measured gcPBM binding intensity (ln).
Result: 6.67

Ask: Using the record for GTATGGCGTATCATATGTACTAAAAAAAAATAAAAA [XGTACX_site5101] , state its measured gcPBM binding intensity (ln).
Result: 6.49

Ask: Using the record for ATGTATGTATAATATACACACTCACAAGCATTCAAA [CACACA_site4306] , state its measured gcPBM binding intensity (ln).
Result: 6.75

Ask: Using the record for TAATAAATAAAAACATGTACATATATACATATATGT [XGTACX_site485] , state its measured gcPBM binding intensity (ln).
Result: 6.35

Ask: Using the record for TATTTATATGTATATACATGCACATATATATGAAAC [TGCATGCA_site1005] , state its measured gcPBM binding intensity (ln).
Result: 8.8

Ask: Using the record for TATGTATAAATATATGCACACATATATATATTTATA [CACACA_site9150] , state its measured gcPBM binding intensity (ln).
Result: 9.35

Ask: Using the record for AATATACGAAATTGTGCACACATATATTTATGTATG [CACACA_site1510] , state its measured gcPBM binding intensity (ln).
Result: 10.8

Ask: Using the record for AGACACGTATACGATGCACACGTATGCTTTATATAT [CACACA_site9363] , state its measured gcPBM binding intensity (ln).
Result: 8.32

Ask: Using the record for ATATATATTATGTGTGTGCACTTTTGTTATTATTAT , state its measured gcPBM binding intensity (ln).
Result: 9.03

Ask: Using the record for AATATAAATAAAAACACACACACACCCATATATATA [CACACA_site2267] , state its measured gcPBM binding intensity (ln).
Result: 7.13

Ask: Using the record for AAAAAAATTAATGTGTGTACTTAGATATAATGTTTA [XGTACX_site8862] , state its measured gcPBM binding intensity (ln).
Result: 6.43

Ask: Using the record for ATGCTTTTGTCATGTGCACACACGTATATATTATAT [CACACA_site4163] , state its measured gcPBM binding intensity (ln).
Result: 11

Ask: Using the record for GCTTTTGTCATGTGCACACACGTATATATTATATAT [CACACA_site6146] , state its measured gcPBM binding intensity (ln).
Result: 11.5

Ask: Using the record for AAAAAAAAAAAAAACACACACACACCCATAAATATA [CACACA_site151] , state its measured gcPBM binding intensity (ln).
Result: 6.87

Ask: Using the record for TTGTGCTTGATATCACGGACAAGCTCATATTATATA [XGTACX_site4553] , state its measured gcPBM binding intensity (ln).
Result: 6.03

* * *

test system: PfHDP1 homeodomain (GST-tagged); test: gcPBM binding intensity (ln(normalized median fluorescence intensity)); higher = stronger DNA binding
Over roughly 25,000 sequences, “ln(normalized median fluorescence intensity)” has its median near 6.7; the highest 2% begin near 10. Only a selection was taken, and the highest values are over-represented in it overall.
parameter_measured: gcPBM binding intensity (ln)
Hey, just send me the number, nothing else.

Ask: Using the record for TAATATTTTAATTGTGTGCACATTAATATTATAAAA , state its measured gcPBM binding intensity (ln).
Result: 10.3

Ask: Using the record for TTTTATCTTTTTTTATTTTAATGTATTATTTTTATG [XGTACX_negctrl_site24] , state its measured gcPBM binding intensity (ln).
Result: 6.61

Ask: Using the record for ATGAAAATTTATATTGCACACATAGGGAATAAAAAA [CACACA_site8667] , state its measured gcPBM binding intensity (ln).
Result: 10.4

Ask: Using the record for AAAAAAAAAAAAAGGTGTACATGCAAAATAAATTCT [XGTACX_site4592] , state its measured gcPBM binding intensity (ln).
Result: 6.48

Ask: Using the record for TAAAAAATAAATATATGTACATATTTATTTTTTTTT [XGTACX_site850] , state its measured gcPBM binding intensity (ln).
Result: 6.19

Ask: Using the record for ATTATTAATAATTGTGTGCACAAATATTTATATGCT , state its measured gcPBM binding intensity (ln).
Result: 10.6

Ask: Using the record for TTAAAAAAATTAATATGTACATATATTTATATATAT [XGTACX_site5317] , state its measured gcPBM binding intensity (ln).
Result: 6.54

Ask: Using the record for TATATATATTTTTGTGTGCACTATAATATGAAAATA , state its measured gcPBM binding intensity (ln).
Result: 10.3

Ask: Using the record for TCCAAAATATCCTTCACACACGAACAGTTTCATTTA [CACACA_site5511] , state its measured gcPBM binding intensity (ln).
Result: 6.49

Ask: Using the record for ACTGAAAAAAGAAATACACACATTCTGGATCAGATA [CACACA_site7760] , state its measured gcPBM binding intensity (ln).
Result: 6.39

Ask: Using the record for TTCTTAAGGAACGAACGTACAGAATAAAAAGTAAAA [XGTACX_site4294] , state its measured gcPBM binding intensity (ln).
Result: 6.61

Ask: Using the record for TAACTTCAAAAATCTTGTACATAAATATATAAAACA [XGTACX_site8574] , state its measured gcPBM binding intensity (ln).
Result: 6.29

Ask: Using the record for TAATAATTATTGCACGCACACAAAAACCTATAGATT [CACACA_site2931] , state its measured gcPBM binding intensity (ln).
Result: 10.6

Ask: Using the record for AAAAAATATAGATGCACACACAAAAAAACAAATTAA [CACACA_site6718] , state its measured gcPBM binding intensity (ln).
Result: 8.71

Ask: Using the record for TATTTATACATACATACACACATATAGATTTATATT [CACACA_site7851] , state its measured gcPBM binding intensity (ln).
Result: 6.85

Ask: Using the record for TTTTTTTCTTCTTTTCTCTTAAAAATATTGAATATT [CACACA_negctrl_site1762] , state its measured gcPBM binding intensity (ln).
Result: 6.28

Ask: Using the record for TATAAATAAAAATATACACACTGTATTATTGTAATA [CACACA_site7721] , state its measured gcPBM binding intensity (ln).
Result: 6.24

Ask: Using the record for ATAACAAAAATCCTTGTGCACTATTTTAATAGAGTC , state its measured gcPBM binding intensity (ln).
Result: 10.5

Ask: Using the record for ATTAAATTTCCTTGAGTGCACATTTTGTTAAAATAT , state its measured gcPBM binding intensity (ln).
Result: 9.29

Ask: Using the record for TTTTCTCTAAAAAGGTGTACAACTAATAATGCACTG [XGTACX_site6074] , state its measured gcPBM binding intensity (ln).
Result: 10.6

Ask: Using the record for AAATGTGAACTATAATAATTTCAACGTCTGATATAA [TGCATGCA_negctrl_site440] , state its measured gcPBM binding intensity (ln).
Result: 5.94

Ask: Using the record for TAATATAATATATGCACACAAATATGTATTTATGTG [CACACA_site5210] , state its measured gcPBM binding intensity (ln).
Result: 10.1

Ask: Using the record for TTTCCCTACCAAAAATGTACTTATAAGCGTTTTTAT [XGTACX_site739] , state its measured gcPBM binding intensity (ln).
Result: 6.5

Ask: Using the record for AAATACTGTACAAAGGTGCATAAAAAGTGGGGCATA , state its measured gcPBM binding intensity (ln).
Result: 9.07

Ask: Using the record for TTTGAACTCTTAAGTGGTACAAATTTGTATTTTCTC [XGTACX_site2322] , state its measured gcPBM binding intensity (ln).
Result: 6.52

Ask: Using the record for TTTAATAATTATTAAAGTACAAAATAAATATTGAAT [XGTACX_site7538] , state its measured gcPBM binding intensity (ln).
Result: 6.7

Ask: Using the record for TCACTATAATAATTTACACACATTTTAAGAAAATGT [CACACA_site3530] , state its measured gcPBM binding intensity (ln).
Result: 6.61

Ask: Using the record for TAAAATAATATTTATGTGCACATATAATTATTAATT , state its measured gcPBM binding intensity (ln).
Result: 10.7

Ask: Using the record for AATGTTAAACTATGATGTACGGTTAAAAATATAATT [XGTACX_site893] , state its measured gcPBM binding intensity (ln).
Result: 6.43

Ask: Using the record for CAAATATATATGTTCACACATATAATTATTGTGAAA [CACACA_site4190] , state its measured gcPBM binding intensity (ln).
Result: 6.4

Ask: Using the record for TTTTTATTGCAATACTTATATTTTTTTATGATTAAA [TGCATGCA_negctrl_site147] , state its measured gcPBM binding intensity (ln).
Result: 10.1

Ask: Using the record for GATAATGAATGATGCACACTAAAAATATTCTACAAC [CACACA_site3622] , state its measured gcPBM binding intensity (ln).
Result: 8.94

Ask: Using the record for AAAATATTTATTACTTCACACATTATTGTATTTATA [CACACA_site5082] , state its measured gcPBM binding intensity (ln).
Result: 6.5

Ask: Using the record for TATAAAAATATATATATATATATATATATATATATA [TGCATGCA_negctrl_site541] , state its measured gcPBM binding intensity (ln).
Result: 9.32

Ask: Using the record for AAGGGTTGCCTGTGTAGTACATATATATATATATAT [XGTACX_site8555] , state its measured gcPBM binding intensity (ln).
Result: 9.24

Ask: Using the record for TATTTCATTAATGTCACTTTGAAAGAAATGAAAAAA [CACACA_negctrl_site1803] , state its measured gcPBM binding intensity (ln).
Result: 6.44

Ask: Using the record for ATTTTTTAAAAAGTAACACACACTCTTATATATAAT [CACACA_site9206] , state its measured gcPBM binding intensity (ln).
Result: 6.64

Ask: Using the record for ACAACAAAAATAAGCACACACAAATATACATACATA [CACACA_site7664] , state its measured gcPBM binding intensity (ln).
Result: 6.55

Ask: Using the record for GGATTTATTTTATATACACACATACCTATATTTATA [CACACA_site7084] , state its measured gcPBM binding intensity (ln).
Result: 6.84
